measurement description: Pharmacokinetics after 30 min i.v. infusion, phase I trial in hepatocellular carcinoma patients
Assay type: in vivo, human
assay conditions: human, plasma, iv, 1400 mg/m^2; read-out: AUC0–24 h
test readout: AUC(0-t) (µM·h)
Kindly provide the numeric value in µM·h only, without the unit symbol.

// query AUC(0-t) value for entry O=C(/C=C/c1cccc(S(=O)(=O)Nc2ccccc2)c1)NO [Belinostat]
149

====

measurement description: Pharmacokinetics after 30 min i.v. infusion, phase I trial in hepatocellular carcinoma patients
Type: in vivo, human
assay conditions: human, plasma, iv; 600 mg/m^2, 30 min i.v. infusion
test readout: Tmax (min)
# unit: min | format: bare number

Request the reported Tmax associated with O=C(/C=C/c1cccc(S(=O)(=O)Nc2ccccc2)c1)NO
19.8

====

measurement description: Pharmacokinetics after 30 min i.v. infusion, phase I trial in hepatocellular carcinoma patients
Type: in vivo, human
assay conditions: human, plasma, iv; 1200 mg/m^2, 30 min i.v. infusion; read-out: T1/2 (half-life at the elimination phase) (converted)
test readout: half-life (h)
Write the number in h without appending the unit.

State the recorded half-life for this entry: O=C(/C=C/c1cccc(S(=O)(=O)Nc2ccccc2)c1)NO
4.14

====

measurement description: Pharmacokinetics after 30 min i.v. infusion, phase I trial in hepatocellular carcinoma patients
Format: in vivo, human
assay conditions: human, plasma, iv; 1400 mg/m^2, 30 min i.v. infusion
test readout: Tmax

Which value of Tmax has been reported for O=C(/C=C/c1cccc(S(=O)(=O)Nc2ccccc2)c1)NO [Belinostat] in the records?
24 min

====

measurement description: Pharmacokinetics after 30 min i.v. infusion, phase I trial in hepatocellular carcinoma patients
Format: in vivo, human
assay conditions: human, plasma, iv; 900 mg/m^2, 30 min i.v. infusion; read-out: Vz (volume of distribution)
test readout: Vd (L)
Please reply with the bare figure in L and do not write the unit itself.

Which Vd reading was recorded for the compound O=C(/C=C/c1cccc(S(=O)(=O)Nc2ccccc2)c1)NO [Belinostat] ?
409

====

measurement description: Pharmacokinetics after 30 min i.v. infusion, phase I trial in hepatocellular carcinoma patients
Format: in vivo, human
assay conditions: human, plasma, iv; 600 mg/m^2, 30 min i.v. infusion; read-out: CL (clearance) (converted)
test readout: clearance (mL/min)
The reply should be a number in mL/min, with the unit left off.

// lookup clearance for O=C(/C=C/c1cccc(S(=O)(=O)Nc2ccccc2)c1)NO
877

====

measurement description: Pharmacokinetics after 30 min i.v. infusion, phase I trial in hepatocellular carcinoma patients
Format: in vivo, human
assay conditions: human, plasma, iv; 900 mg/m^2, 30 min i.v. infusion; read-out: CL (clearance) (converted)
Text: This multicentre phase I trial of belinostat was done in Hong Kong and Singapore. All patients provided written informed consent according to Good Clinical Practice guidelines, and the protocol was approved by the institutional review boards of Prince of Wales Hospital, Hong Kong and National University Hospital, Singapore. Venous blood samples had been collected in heparinized tubes. […]
test readout: clearance (mL/min)
Express it in mL/min; write the number only.

What measured clearance goes with O=C(/C=C/c1cccc(S(=O)(=O)Nc2ccccc2)c1)NO ?
1180

====

measurement description: Pharmacokinetics after 30 min i.v. infusion, phase I trial in hepatocellular carcinoma patients
Assay type: in vivo, human
assay conditions: human, plasma, iv; 1200 mg/m^2, 30 min i.v. infusion
test readout: Tmax (min)
Hi! Could you send only the number? It should be in min, unit omitted.

Dear colleague, I am looking for the recorded Tmax of the following compound: O=C(/C=C/c1cccc(S(=O)(=O)Nc2ccccc2)c1)NO
38.4

Cited source for all entries: paper PMC3559838
